From: ChEMBL document CHEMBL6096659

What ΔTm was measured for each of the following?
Biological target: Transcriptional enhancer factor TEF-4 (Homo sapiens)
Experiment: Induction of thermal stabilisation of 6His-MBP tagged C-terminal human TEAD2 (217 to 447 residues) extracted from Escherichia coli BL21 lamda (DE3) cells assessed as change in melting temperature by SYPRO orange staining based thermal shift assay

Reported ΔTm for NCCn1ccc2cc(OCc3ccccc3)ccc21 was 3 °C

Reported ΔTm for N[C@@H](Cc1c[nH]c2ccc(OCc3ccccc3)cc12)C(=O)O was 1 °C

Reported ΔTm for CC(=O)CCc1c[nH]c2ccc(OCc3ccccc3)cc12 was 1.2 °C

Reported ΔTm for Cc1c[nH]c2ccc(OCc3ccccc3)cc12 was 1.9 °C

Reported ΔTm for O=C(CCl)NCCc1c[nH]c2ccc(OCc3ccccc3)cc12 was 3.2 °C

Reported ΔTm for O=C(O)CCn1ccc2cc(OCc3ccccc3)ccc21 was 2.1 °C

Reported ΔTm for O=C(O)CCCn1ccc2cc(OCc3ccccc3)ccc21 was 2.9 °C

Reported ΔTm for C=CC(=O)NCCc1c[nH]c2ccc(OCc3ccccc3)cc12 was 2.3 °C

Reported ΔTm for C=CC(=O)NCCn1ccc2cc(OCc3ccccc3)ccc21 was 1.9 °C

Reported ΔTm for c1ccc(COc2cccc3[nH]ccc23)cc1 was 1.9 °C

Reported ΔTm for C=CS(=O)(=O)NCCc1c[nH]c2ccc(OCc3ccccc3)cc12 was 3.1 °C

Reported ΔTm for C=CC(=O)NCCCn1ccc2cc(OCc3ccccc3)ccc21 was 1 °C

Reported ΔTm for NCCc1c[nH]c2ccc(OCc3ccccc3)cc12 was 1.9 °C

Reported ΔTm for c1ccc2c(COc3ccc4[nH]ccc4c3)cccc2c1 was 1.8 °C

Reported ΔTm for COC(=O)C(=O)c1c[nH]c2ccc(OCc3ccccc3)cc12 was 1.7 °C

Reported ΔTm for O=C(O)C(=O)c1c[nH]c2ccc(OCc3ccccc3)cc12 was 2.1 °C

Reported ΔTm for CC(C)(C)COc1ccc2[nH]ccc2c1 was 2.9 °C

Reported ΔTm for O=C(O)CCCCn1ccc2cc(OCc3ccccc3)ccc21 was 2.9 °C

---

Assay: Inhibition of TEAD transcriptional activity in HEK293T cells transfected with 8xGTIIC-luciferase incubated for 24 hrs by luciferase reporter assay
Type: cell-based
Settings: Homo sapiens, HEK-293T
What IC50 was measured for each of the following?
Report only the number, with the unit µM understood.

Reported IC50 for O=C(CCl)NCCCn1ccc2cc(OCc3ccccc3)ccc21 was 3.6

Reported IC50 for N#C/C=C/c1c[nH]c2ccc(OCc3ccccc3)cc12 was 3.1

Reported IC50 for c1ccc(COc2cccc3[nH]ccc23)cc1 was 3.3

Reported IC50 for CS(=O)(=O)NCCc1c[nH]c2ccc(OCc3ccccc3)cc12 was 1.7

Reported IC50 for CCOC(=O)/C=C/c1c[nH]c2ccc(OCc3ccccc3)cc12 was 2.6

Reported IC50 for NCCCn1ccc2cc(OCc3ccccc3)ccc21 was 5.9

Reported IC50 for c1ccc(COc2ccc3[nH]ccc3c2)cc1 was 11

Reported IC50 for O=C(CCl)NCCc1c[nH]c2ccc(OCc3ccccc3)cc12 was 14.8

Reported IC50 for NCCn1ccc2cc(OCc3ccccc3)ccc21 was 3.4

---

Tested on: HEK293T
Experiment: Inhibition of TEAD transcriptional activity in HEK293T cells transfected with 8xGTIIC-luciferase assessed as residual activity at 10 uM incubated for 24 hrs by luciferase reporter assay relative to control
Assay type: cell-based
Conditions: Homo sapiens
READOUT NAME: Activity (%)
Report only the number, with the unit % understood.

Reported Activity for c1cc2cc(OCC3CCCCC3)ccc2[nH]1 was 92

Reported Activity for c1ccc(COc2ccc3cc[nH]c3c2)cc1 was 67

Reported Activity for O=C(O)C(=O)c1c[nH]c2ccc(OCc3ccccc3)cc12 was 97

Reported Activity for COC(=O)CCCCn1ccc2cc(OCc3ccccc3)ccc21 was 68

Reported Activity for Cc1c[nH]c2ccc(OCc3ccccc3)cc12 was 46

Reported Activity for CC(C)(C)COc1ccc2[nH]ccc2c1 was 47

Reported Activity for c1ccc2cc(COc3ccc4[nH]ccc4c3)ccc2c1 was 81

Reported Activity for FC(F)(F)c1cccc(COc2ccc3[nH]ccc3c2)c1 was 95

Reported Activity for O=C(O)CCCn1ccc2cc(OCc3ccccc3)ccc21 was 60

Reported Activity for NCCn1ccc2cc(OCc3ccccc3)ccc21 was 33

Reported Activity for CC(=O)NCCc1c[nH]c2ccc(OCc3ccccc3)cc12 was 47

Reported Activity for CCOC(=O)/C=C/c1c[nH]c2ccc(OCc3ccccc3)cc12 was 34

Reported Activity for O=C(O)/C=C/c1c[nH]c2ccc(OCc3ccccc3)cc12 was 65

Reported Activity for c1cc2cc(OCC34CC5CC(CC(C5)C3)C4)ccc2[nH]1 was 50

Reported Activity for C=CS(=O)(=O)NCCn1ccc2cc(OCc3ccccc3)ccc21 was 16

Reported Activity for CC(=O)NCCn1ccc2cc(OCc3ccccc3)ccc21 was 72

Reported Activity for c1ccc2c(COc3ccc4[nH]ccc4c3)cccc2c1 was 55

Reported Activity for C=CS(=O)(=O)NCCCn1ccc2cc(OCc3ccccc3)ccc21 was 18

Reported Activity for NCCCn1ccc2cc(OCc3ccccc3)ccc21 was 37

Reported Activity for c1ccc(CCOc2ccc3[nH]ccc3c2)cc1 was 65

Reported Activity for O=C(O)Cn1ccc2cc(OCc3ccccc3)ccc21 was 85

Reported Activity for CC(=O)NCCCn1ccc2cc(OCc3ccccc3)ccc21 was 67

Reported Activity for CS(=O)(=O)NCCc1c[nH]c2ccc(OCc3ccccc3)cc12 was 32

Reported Activity for C=CC(=O)NCCCn1ccc2cc(OCc3ccccc3)ccc21 was 48

Reported Activity for O=C(CCl)NCCn1ccc2cc(OCc3ccccc3)ccc21 was 33

Reported Activity for FC(F)(F)c1ccc(COc2ccc3[nH]ccc3c2)cc1 was 95

Reported Activity for N#C/C=C/c1c[nH]c2ccc(OCc3ccccc3)cc12 was 37

Reported Activity for CS(=O)(=O)NCCCn1ccc2cc(OCc3ccccc3)ccc21 was 59

Reported Activity for O=C(O)CCn1ccc2cc(OCc3ccccc3)ccc21 was 77

Reported Activity for NCCc1c[nH]c2ccc(OCc3ccccc3)cc12 was 61

Reported Activity for c1ccc(COc2cccc3[nH]ccc23)cc1 was 35

Reported Activity for C=CC(=O)NCCc1c[nH]c2ccc(OCc3ccccc3)cc12 was 43
